biological target: UniProt:Q13627; experiment: ADP-Glo Kinase Assay, DYRK1; type: biochemical; settings: 1 μM compound
MEASURED_ATTRIBUTE: DYRK1A % INH (1 μM) (%)

MOLECULE	MEASURED_ATTRIBUTE	EXPERIMENTAL_RESULT
CC(C)n1c(N2CCC(N)CC2)nc2c([N+](=O)[O-])c(Br)c(Br)cc21 [Example 1CP]	DYRK1A % INH (1 μM)	44
CCn1c(NCCN)nc2c([N+](=O)[O-])c(Br)c(Br)cc21 [Example 1AL]	DYRK1A % INH (1 μM)	49

I = CCCn1c(N2CC[C@@H](N)C2)nc2c([N+](=O)[O-])c(Br)c(Br)cc21 [Example 1CM]
II = CCn1c(N2CCCC(N)C2)nc2c([N+](=O)[O-])c(Br)c(Br)cc21.Cl (stereo not shown) [Example 1F]
Between the entries labeled I and II , whose measured DYRK1A % INH (1 μM) is lower? # reply format: chosen label
II
(II: 20%, I: 95%)

###

target: DYRK1 (Homo sapiens (Human), UniProt Q13627); experiment: ADP-Glo Kinase Assay, DYRK1; assay type: biochemical; conditions: 1 μM compound
Measured DYRK1A % INH (1 μM) values are reported for all entries that follow.

Worked set:
MOLECULE	EXPERIMENTAL_RESULT
CC(C)n1c(N2CCNC[C@H]2C)nc2c([N+](=O)[O-])c(Br)c(Br)cc21 [Example 1AX]	>95%
N[C@@H]1CCN(c2nc3c([N+](=O)[O-])c(Br)c(Br)cc3n2C2CCC2)C1 [Example 1DC]	>95%

Now for a further molecule.
For DYRK1 (Homo sapiens (Human), UniProt Q13627), provide DYRK1A % INH (1 μM) of CCCn1c(N2CCNCC2)nc2c([N+](=O)[O-])c(Br)c(Br)cc21 [Example 1M] please.
>95%
